TESTED_SYSTEM: T1, human cathepsin V (human, UniProt O60911 114-334)
T1 construct: source: Pichia pastoris expression system, as described previously [12,56,57]
T1 sequence (O60911 114-334): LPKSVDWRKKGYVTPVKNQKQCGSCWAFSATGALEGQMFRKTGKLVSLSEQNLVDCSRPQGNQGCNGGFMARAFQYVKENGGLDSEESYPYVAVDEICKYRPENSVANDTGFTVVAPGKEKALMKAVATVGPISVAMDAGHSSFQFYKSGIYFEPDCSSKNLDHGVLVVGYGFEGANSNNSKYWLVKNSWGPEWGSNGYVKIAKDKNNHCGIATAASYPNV
ASSAY_INFO: enzyme inhibition kinetics (fluorogenic peptide substrate activity assay); inhibitor preincubated with protease 15 min, 37 °C; IC50 from residual velocities, Ki by the Cheng-Prusoff equation; 50 mM sodium acetate pH 5.5, 0.1% polyethylene glycol 1500, 2.5 mM dithiothreitol (cathepsins L, K, V, B, F, C and papain; 50 mM NaCl for cathepsin C)
CONDITION_PARAMETERS: both partners purified
MEASURED_QUANTITY: pKi
Bear in mind: pKi is minus log10 of a mol/L concentration; give just that figure.

INPUT: Give pKi for the following binder: IrThy-Nd, recombinant N-terminal Tg1 domain of IrThy (domain or fragment) SNAASVPTRVANHGASRPLSDCEQRKQREERNTGPLAIHIECNPDGSYKPMQCFGNPDQPRRMCACYDQEYDQIKAPSRQLKSCK
OUTPUT: 7.57
